The values you see were collected from the nanobody polyreactivity screen of Harvey et al. (2022).

assay: yeast display, Sf9 membrane polyspecificity reagent, FACS + sequencing; frameworks hold sequencing errors
value.kind: polyreactivity (PSR sort gate)

entry.sequence: QVQLVESGGGLVQAGGSLRLSCAASGFIFASYTMGWYRQAPGNEREWVAAISRSGGRTYYADSVKGRFTISRDNAKKTVYLQMNSLKPEDTAVYYCATLETTGVNYWGQGTQVTVSS
value.kind: polyreactivity (PSR sort gate)
result: high polyreactivity

entry.sequence: QVQLVESGGGLVQAGGSLRLSCDASGYTFRRYAMGWYIQAPGKEREMVAAITNSGGSTYYADSVKGRFTISRDNAKNTVYLQMNSLKPEDTAVYYCVALRSAGAYDYWGQGTQVTVSS
value.kind: polyreactivity (PSR sort gate)
result: low polyreactivity

entry.sequence: HEQLQESGGGLVQAVGSLRLSCAASGHISRSSTMGWYRQAPGKERELVTAITRGTNTNYADSVKGRFTISRDNAKNSEYLQMNSLKPEDTAVYYCAAYGVLKPSRGDAVFHRYWGQGTQVTVSR
value.kind: polyreactivity (PSR sort gate)
result: low polyreactivity

entry.sequence: QVQLVESGGGLVQAGGSLRLSCAASGSIFRYNAMGWYRQAPGKERELVASISISDGSTYYADSVKGRFTISRDNAKNTVYLQMKSLKPEDTAVYYCAARTRDFYYPYDYWGQGTQVTVSS
value.kind: polyreactivity (PSR sort gate)
result: low polyreactivity

entry.sequence: QVHLVESGGGLVQAGGSLRLSCAASGSTFKPYTMGWYRQAPGKERELVAAITSRGTSTYYADSVKGRFKISRDNAKNTVYLQMNSLKPEDTEVYYCAARRPGTFSYGYWGQGTQVTVSS
value.kind: polyreactivity (PSR sort gate)
result: high polyreactivity

Req: For the sequence QVQLVESGGGLVQAGGSLRLSCAASGLIFSKNVMGWYRQAPGKERELVAAISQRGGSTYYADSVKGRFTISRDNAKNTVYLQMNSLKPEDTAVYYCAARSRRRDDYWGQGTQVTVSS , give its measured polyreactivity (PSR sort gate) value.
Resp: high polyreactivity
